Tested on: T-47D breast
assay.explanation: NCI-60 one-dose screen, 48 h (100 = growth as untreated, 0 = no growth, -100 = all killed)
study.conditions: 10 µM unless noted
The panel holds about 83,000 compounds, 20% with a hit somewhere; the sample as a whole holds those more often.
measurement.label: growth (%)
Answer format: numeric, % implied, no suffix.

Input `CS(=O)(=O)c1ccc(/C(=N/N=C(N)N)c2ccc(F)cc2)cc1` . Output growth: 94.4

Input `COc1ccc2c(c1)c(-c1nnc(N)nc1-c1c[nH]c3ccc(F)cc13)cn2C` . Output growth: 46.5

Input `COC(=O)CCSC1=C(C)C(=O)c2ccccc2C1=O` . Output growth: 43.5

Input `CCOC(=O)c1ccc(NC2=C(Cl)C(=O)c3nc(C)ccc3C2=O)cc1` . Output growth: -0.935

Input `CC(=O)OC[C@@]12Oc3c(cccc3-c3ccc(O)c4c3O[C@]3(COC(C)=O)C(=C4O)C(=O)C[C@H](C)[C@@H]3OC(C)=O)C(O)=C1C(=O)C[C@H](C)[C@@H]2OC(C)=O` . Output growth: 4.37

Input `CCOP(=O)(OCC)OC[C@]12CCC(C)(C)C[C@H]1C1=CC[C@@H]3[C@@]4(C)CC[C@H](OP(=O)(OCC)OCC)C(C)(C)[C@@H]4CC[C@@]3(C)[C@]1(C)CC2` . Output growth: 26.2

Input `NS(=O)(=O)c1cccc(Nc2nc(SCC(=O)c3ccc(Cl)cc3)nc3c2CCC3)c1` . Output growth: 90.4

Input `CC1(C)CC[C@]2(C(=O)O)CC[C@]3(C)C(=CC[C@@H]4[C@@]5(C)CC[C@H](NOCCCN)C(C)(C)[C@@H]5CC[C@]43C)[C@@H]2C1` . Output growth: 73.1

Input `CCC(=C(c1ccc(OCCN(C)C)cc1)c1ccc(OCCN(C)C)cc1)c1ccc(Cl)cc1` . Output growth: -56

Input `CCCCCC[n+]1ccc(SCC(=O)n2ccc3ccccc32)c2ccccc21` . Output growth: 59.1

Input `CCCCCCNC(=O)Oc1ccc(/C(=C(/C)c2ccc(OC)cc2)c2ccc(OCCN3CCCCCC3)cc2)cc1` . Output growth: -19.1

Input `COc1cc(C(=O)c2cc(C(C)=O)c3cccc(C)n23)cc(OC)c1OC` . Output growth: 20.3

Input `CCNC(=O)Oc1ccc(/C(=C(/C)c2ccc(Cl)cc2)c2ccc(OCCN3CCCCCC3)cc2)cc1` . Output growth: 10.8

Input `Cc1ccc2c(n1)C(=O)C(Cl)=C(Nc1cccc(C)c1C)C2=O` . Output growth: -56.7

Input `C#CCN(C)CCCOc1ccc(NCc2ccc(/C=C/C(=O)NO)cc2)cc1Cl` . Output growth: 1.04

Input `Clc1ccc2[nH]cc(-c3cncn3CCc3ccc4c(c3)OCO4)c2c1` . Output growth: 37.8

Input `O=C(CCCCCCN1CC(=O)N2[C@@H](c3cccs3)c3[nH]c4ccccc4c3C[C@H]2C1=O)NO` . Output growth: 42.7

Input `O=C(CSc1nnc(-c2cccs2)n1-c1ccccc1)Nc1ccccc1` . Output growth: 78.4

Input `C[C@@H]1OCC2(CCN(c3cnc(C(=O)Nc4cc(F)cc5cccnc45)cn3)CC2)[C@@H]1N` . Output growth: 37.1

Input `CCN(CC)c1ccc(/C=N/NC(=O)c2ccc(NS(C)(=O)=O)cc2)cc1` . Output growth: 27.4

Input `CCN(CC)CCOc1ccc(C(=C(c2ccccc2)C2CCCC2)c2ccc(OCCN(CC)CC)cc2)cc1` . Output growth: 18.8

Input C#CCOc1ccccc1C(OC(=O)c1ccccc1)C(=O)NC(C)(C)C(C)(C)C (configuration not stated) . Output growth: 73.5

Value source: PubChem BioAssay (NCI)
